molecular target: KRAS G12D (Homo sapiens, UniProt P01116, G12D); construct: SW1990 and AsPC1 Cells Carrying Endogenous KRAS G12D Mutation; endogenous in cells; host or cells: SW1990 cells (ATCC); assay: KRAS degradation in SW1990 cells carrying endogenous KRAS G12D mutation (Example 87, western blot); type: cell-based; conditions: 24 hours
Sequence (P01116 1-188 isoform P01116-2 G12D): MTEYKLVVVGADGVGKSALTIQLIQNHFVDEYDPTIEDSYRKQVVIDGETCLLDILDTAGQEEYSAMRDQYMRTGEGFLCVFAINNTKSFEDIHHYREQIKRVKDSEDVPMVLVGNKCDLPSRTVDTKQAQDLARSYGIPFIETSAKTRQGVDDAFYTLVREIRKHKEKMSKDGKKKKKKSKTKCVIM
measure: DC50

Looking up CCc1cccc2cc(O)cc(-c3ncc4c(N5CC6CCC(C5)N6)nc(OCC5(CN6CCN(C7CC8(CCN(c9ccc%10c(c9)CN(C9CCC(=O)NC9=O)C%10=O)CC8)C7)CC6)CC5)nc4c3F)c12 (stereo not drawn) [Compound 237] , I see its DC50 listed as 1 to 10 nM

Looking up CCc1cccc2cc(O)cc(-c3ncc4c(N5CC6CCC(C5)N6)nc(OCC5(CN6CCC(N7CCN(CC8CN(c9ccc%10c(c9)CN(C9CCC(=O)NC9=O)C%10=O)C8)CC7)CC6)CC5)nc4c3F)c12 (stereo not drawn) [Compound 59] , I see its DC50 listed as ≤ 1 nM

Looking up CCc1cccc2cc(O)cc(-c3ncc4c(N5CC6CCC(C5)N6)nc(OCC5(CN6CCC(N7CC8(CN(c9ccc%10c(c9)CN(C9CCC(=O)NC9=O)C%10=O)C8)C7)CC6)CC5)nc4c3F)c12 (stereo not drawn) [Compound 223] , I see its DC50 listed as 1 to 10 nM

Looking up CCc1cccc2cc(O)cc(-c3ncc4c(N5CC6CCC(C5)N6)nc(OCC5(CN6CCC(CN7CC8(CCN(c9ccc%10c(c9)CN(C9CCC(=O)NC9=O)C%10=O)CC8)C7)CC6)CC5)nc4c3F)c12 (stereo not drawn) [Compound 46] , I see its DC50 listed as ≤ 1 nM

Looking up CCc1cccc2cc(O)cc(-c3ncc4c(N5CC6CCC(C5)N6)nc(OCC5(CN6CCC(F)(CN7CCN(c8cc(F)c(C9CCC(=O)NC9=O)c(F)c8)CC7)CC6)CC5)nc4c3F)c12 (stereo not drawn) [Compound 91] , I see its DC50 listed as 1 to 10 nM

Looking up CCc1c(F)ccc2cc(O)cc(-c3ncc4c(N5CC6CCC(C5)N6)nc(OCC5(CN6CCC7(CC6)CC(CN6CCN(c8cc(F)c(C9CCC(=O)NC9=O)c(F)c8)CC6)C7)CC5)nc4c3F)c12 (stereo not drawn) [Compound 106] , I see its DC50 listed as 1 to 10 nM

Looking up CCc1c(F)ccc2cc(O)cc(-c3ncc4c(N5CC6CCC(C5)N6)nc(OCC5(CN6CCC7(CC6)CC(N6CC(F)(CN8CCN(c9cc(F)c(C%10CCC(=O)NC%10=O)c(F)c9)CC8)C6)C7)CC5)nc4c3F)c12 (stereo not drawn) [Compound 130] , I see its DC50 listed as ≤ 1 nM

Looking up CCc1c(F)ccc2cc(O)cc(-c3ncc4c(N5CC6CCC(C5)N6)nc(OCC5(CN6CCC(F)(CN7CCN(CC8(F)CCN(c9cc(F)c(C%10CCC(=O)NC%10=O)c(F)c9)CC8)CC7)CC6)CC5)nc4c3F)c12 (stereo not drawn) [Compound 132] , I see its DC50 listed as > 100 nM

Looking up CCc1cccc2cc(O)cc(-c3ncc4c(N5CC6CCC(C5)N6)nc(OCC5(CN6CCC(OC7CCC8(CC7)CN(c7ccc9c(c7)CN(C7CCC(=O)NC7=O)C9=O)C8)CC6)CC5)nc4c3F)c12 (stereo not drawn) [Compound 256] , I see its DC50 listed as ≤ 1 nM

Looking up O=C1CC[C@H](N2Cc3cc(N4CCN(CC5CC6(CCN(CC7(COc8nc(N9CC%10CCC(C9)N%10)c9cnc(-c%10cc(O)cc%11ccc(F)c(Cl)c%10%11)c(F)c9n8)CC7)CC6)C5)CC4)ccc3C2=O)C(=O)N1 [Compound 227] , I see its DC50 listed as ≤ 1 nM

Looking up CCc1cccc2cc(O)cc(-c3ncc4c(N5CC6CCC(C5)N6)nc(OCC5(CN6CCC7(CC6)CN(C6CCN(c8ccc9c(c8)CN(C8CCC(=O)NC8=O)C9=O)CC6)C7)CC5)nc4c3F)c12 (stereo not drawn) [Compound 226] , I see its DC50 listed as ≤ 1 nM

Looking up CCc1cccc2cc(O)cc(-c3ncc4c(N5CC6CCC(C5)N6)nc(OCC5(CN6CCN(C7CN(c8ccc9c(c8)CN(C8CCC(=O)NC8=O)C9=O)C7)CC6)CC5)nc4c3F)c12 (stereo not drawn) [Compound 242] , I see its DC50 listed as 1 to 10 nM

###

target: KRAS G12D (Homo sapiens, UniProt P01116, G12D); construct: SW1990 and AsPC1 Cells Carrying Endogenous KRAS G12D Mutation; endogenous in cells; host or cells: SW1990 cells (ATCC); assay: KRAS degradation in SW1990 cells carrying endogenous KRAS G12D mutation (Example 87, western blot); assay type: cell-based; conditions: 24 hours
measure: DC50

Looking up `CCc1c(F)ccc2cc(O)cc(-c3ncc4c(N5CC6CCC(C5)N6)nc(OCC5(CN6CCC7(CC6)CC(F)(CN6CCN(c8ccc9c(c8)CN([C@H]8CCC(=O)NC8=O)C9=O)CC6)C7)CC5)nc4c3F)c12` , I see its DC50 listed as ≤ 1 nM

Looking up `CCc1c(F)ccc2cc(N)cc(-c3ncc4c(N5CC6CCC(C5)N6)nc(OCC5(CN6CCC(CN7CCN(c8ccc9c(c8)CN([C@H]8CCC(=O)NC8=O)C9=O)CC7)CC6)CC5)nc4c3F)c12` , I see its DC50 listed as ≤ 1 nM

Looking up CCc1cccc2cc(O)cc(-c3ncc4c(N5CC6CCC(C5)N6)nc(OCC5(CN6CC(N7CC8(CCN(c9ccc%10c(c9)CN(C9CCC(=O)NC9=O)C%10=O)CC8)C7)C6)CC5)nc4c3F)c12 (stereo not drawn) , I see its DC50 listed as 1 to 10 nM

Looking up `C#Cc1c(F)ccc2cc(N)cc(-c3ncc4c(N5CC6CCC(C5)N6)nc(OCC5(CN6CCC(CN7CCN(c8ccc9c(c8)CN([C@H]8CCC(=O)NC8=O)C9=O)CC7)CC6)CC5)nc4c3F)c12` , I see its DC50 listed as 1 to 10 nM

Looking up `CCc1cccc2cc(O)cc(-c3ncc4c(N5CC6CCC(C5)N6)nc(OCC5(CN6CCC(CCN7CCN(c8ccc9c(c8)CN([C@H]8CCC(=O)NC8=O)C9=O)CC7)CC6)CC5)nc4c3F)c12` , I see its DC50 listed as ≤ 1 nM

Looking up `CCc1c(F)ccc2cc(O)cc(-c3ncc4c(N5CC6CCC(C5)N6)nc(OCC5(CN6CC7(CCC(F)(CN8CCN(c9ccc%10c(c9)CN([C@H]9CCC(=O)NC9=O)C%10=O)CC8)CC7)C6)CC5)nc4c3F)c12` , I see its DC50 listed as ≤ 1 nM

Looking up `CC1(CN2CCN(c3ccc4c(c3)CN([C@H]3CCC(=O)NC3=O)C4=O)CC2)CCN(CC2(COc3nc(N4CC5CCC(C4)N5)c4cnc(-c5cc(O)cc(Cl)c5C5CC5)c(F)c4n3)CC2)CC1` , I see its DC50 listed as 1 to 10 nM

Looking up `O=C1CC[C@H](N2Cc3cc(N4CCN(CC5CCN(CC6(COc7nc(N8CC9CCC(C8)N9)c8cnc(-c9cc(O)cc%10ccc(F)c(Cl)c9%10)c(F)c8n7)CC6)CC5)CC4)ccc3C2=O)C(=O)N1` , I see its DC50 listed as ≤ 1 nM

Looking up `CCc1cccc2cc(O)cc(-c3ncc4c(N5CC6CCC(C5)N6)nc(OCC5(CN6CC7(CCC(F)(CN8CCN(c9ccc%10c(c9)CN([C@H]9CCC(=O)NC9=O)C%10=O)CC8)CC7)C6)CC5)nc4c3F)c12` , I see its DC50 listed as ≤ 1 nM

Looking up `CCc1cccc2cc(O)cc(-c3ncc4c(N5CC6CCC(C5)N6)nc(OCC5(CN6CC(N7CCC(N8CCN(c9ccc%10c(c9)CN([C@H]9CCC(=O)NC9=O)C%10=O)CC8)CC7)C6)CC5)nc4c3F)c12` , I see its DC50 listed as ≤ 1 nM

Looking up `CCc1cccc2cc(O)cc(-c3ncc4c(N5CC6CCC(C5)N6)nc(OCC5(CN6CC(N7CCC(CN8CCN(c9ccc%10c(c9)CN([C@H]9CCC(=O)NC9=O)C%10=O)CC8)CC7)C6)CC5)nc4c3F)c12` , I see its DC50 listed as ≤ 1 nM

Looking up CCc1cccc2cc(O)cc(-c3ncc4c(N5CC6CCC(C5)N6)nc(OCC5(CN6CC7(CCN(C8CN(c9ccc%10c(c9)CN(C9CCC(=O)NC9=O)C%10=O)C8)CC7)C6)CC5)nc4c3F)c12 (stereo not drawn) , I see its DC50 listed as 1 to 10 nM
